molecular target: Xanthine dehydrogenase/oxidase (Homo sapiens, UniProt P47989)
Sequence (P47989 whole entry): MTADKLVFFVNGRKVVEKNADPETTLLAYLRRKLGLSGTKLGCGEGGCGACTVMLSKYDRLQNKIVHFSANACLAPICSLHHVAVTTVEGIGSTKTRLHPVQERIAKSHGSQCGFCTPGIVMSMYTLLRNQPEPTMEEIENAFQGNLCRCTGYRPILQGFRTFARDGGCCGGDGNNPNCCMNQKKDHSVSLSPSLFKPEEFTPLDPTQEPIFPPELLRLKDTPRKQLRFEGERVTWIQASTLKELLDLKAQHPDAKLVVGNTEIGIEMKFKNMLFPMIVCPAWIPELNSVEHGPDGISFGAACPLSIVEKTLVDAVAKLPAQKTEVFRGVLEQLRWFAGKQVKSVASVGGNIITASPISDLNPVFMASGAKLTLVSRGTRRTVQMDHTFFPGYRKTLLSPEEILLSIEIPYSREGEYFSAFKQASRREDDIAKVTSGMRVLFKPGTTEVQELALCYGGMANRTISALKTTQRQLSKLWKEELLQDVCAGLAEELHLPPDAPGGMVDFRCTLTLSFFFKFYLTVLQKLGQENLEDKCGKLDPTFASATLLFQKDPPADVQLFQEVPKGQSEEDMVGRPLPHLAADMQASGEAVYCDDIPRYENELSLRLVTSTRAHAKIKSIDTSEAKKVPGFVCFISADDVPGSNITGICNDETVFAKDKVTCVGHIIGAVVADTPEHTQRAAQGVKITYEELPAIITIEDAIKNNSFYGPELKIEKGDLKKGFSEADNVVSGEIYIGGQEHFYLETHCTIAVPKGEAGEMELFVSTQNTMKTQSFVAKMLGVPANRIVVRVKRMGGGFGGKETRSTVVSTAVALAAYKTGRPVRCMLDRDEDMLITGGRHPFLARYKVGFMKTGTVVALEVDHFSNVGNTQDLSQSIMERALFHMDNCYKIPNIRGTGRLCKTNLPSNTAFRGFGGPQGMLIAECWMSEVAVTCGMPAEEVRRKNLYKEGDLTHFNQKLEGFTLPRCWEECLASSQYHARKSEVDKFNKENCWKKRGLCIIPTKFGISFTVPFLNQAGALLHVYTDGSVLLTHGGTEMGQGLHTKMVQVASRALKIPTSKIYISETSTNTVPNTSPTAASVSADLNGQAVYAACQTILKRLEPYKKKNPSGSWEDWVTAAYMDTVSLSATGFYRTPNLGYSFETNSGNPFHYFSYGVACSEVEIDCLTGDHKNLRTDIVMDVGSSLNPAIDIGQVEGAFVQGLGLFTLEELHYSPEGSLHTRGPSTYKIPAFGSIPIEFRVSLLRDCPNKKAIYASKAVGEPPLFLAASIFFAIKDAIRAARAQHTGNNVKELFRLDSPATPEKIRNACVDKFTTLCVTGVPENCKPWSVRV
valueKind: IC50

// IC50 value for `O=C(O)CSc1nnc(Br)n1-c1ccc(C2CC2)c2ccccc12` : > 300 µM
